Value source: patent US20090042905A1

Tested on: male C57BL/6J mice
Protocol Summary: Fasting-induced feeding behavior (food intake) of mice
Type: in vivo
Conditions: 2 h; oral dose 2 μmol per mouse, 30 min before food; read-out: change of food intake - compounds versus vehicle treated negative control, at 2 h
Procedure: The effectiveness of selected compounds of the invention on fasting-induced feeding behavior of mice was investigated. The experiments were performed according to Asakawa A et al. (Asakawa A et al., Gut 2003, 52: 947-952) with the following technical details: Preparation of compounds of the invention: dissolved in dimethylsulfoxide (DMSO) and then diluted in distilled water (i.e. 0.5, 1 and 10% DMSO for 0.5, 1 and 2 μmol/mouse, respectively); […]
Give measured change in vivo at 2 µmol/mouse for each item. Keep answers brief.
Put down the number, then write its unit next to it.

Sample Smiles: COc1ccc(Cn2c(CCc3c[nH]c4ccccc34)nnc2[C@@H](Cc2c[nH]c3ccccc23)NC(=O)C2CCNCC2)c(OC)c1
change in vivo at 2 µmol/mouse: 16%
//
Sample Smiles: COc1ccc(Cn2c(CCc3ccccc3)nnc2[C@@H](Cc2c[nH]c3ccccc23)NC(=O)C2CCNCC2)c(OC)c1
change in vivo at 2 µmol/mouse: 50%
//
Sample Smiles: COc1ccc(Cn2c(CCc3ccccc3)nnc2[C@@H](Cc2c[nH]c3ccccc23)NC(=O)[C@H]2CCCCN2)cc1
change in vivo at 2 µmol/mouse: -39%

// switching to the query molecule
## Input Suppose we examine the molecule `CC(C)(N)C(=O)N[C@H](Cc1c[nH]c2ccccc12)c1nnc(Cc2ccccc2)n1Cc1ccc(Cl)c(Cl)c1` ; what change in vivo at 2 µmol/mouse value has been reported?
## Output -25%

----------
System: male C57BL/6J mice
Protocol Summary: Fasting-induced feeding behavior (food intake) of mice
Type: in vivo
Conditions: 1 h; oral dose 2 μmol per mouse, 30 min before food; read-out: change of food intake - compounds versus vehicle treated negative control, at 1 h
Outcome Measure: change in vivo at 2 µmol/mouse (%)
Numbers only, in %.

// solved cases for change in vivo at 2 µmol/mouse follow
Compound: COc1ccc(Cn2c(CCc3ccccc3)nnc2[C@@H](Cc2c[nH]c3ccccc23)NC(=O)C2CCNCC2)c(OC)c1 [Compound 62]
Measurement Units: %
Endpoint Value: 68

Compound: CC(C)(N)C(=O)N[C@H](Cc1c[nH]c2ccccc12)c1nnc(CCc2c[nH]c3ccccc23)n1Cc1ccc(Cl)c(Cl)c1 [Compound 28]
Measurement Units: %
Endpoint Value: -28

Compound: COc1ccc(Cn2c(CCc3ccccc3)nnc2[C@@H](Cc2c[nH]c3ccccc23)NC(=O)c2cnccn2)c(OC)c1 [Compound 66]
Measurement Units: %
Endpoint Value: -40

Compound: COc1ccc(Cn2c(CCc3c[nH]c4ccccc34)nnc2[C@@H](Cc2c[nH]c3ccccc23)NC(=O)C2CCNCC2)c(OC)c1 [Compound 31]
Measurement Units: %
Endpoint Value: 20

Compound: CC(C)(N)C(=O)N[C@H](Cc1c[nH]c2ccccc12)c1nnc(CCc2c[nH]c3ccccc23)n1Cc1cccc2ccccc12 [Compound 5]
Measurement Units: %
Endpoint Value: -58

Compound: O=C(N[C@H](Cc1c[nH]c2ccccc12)c1nnc(CCc2ccccc2)n1-c1ccccc1)C1CCNCC1 [Compound 142]
Measurement Units: %
Endpoint Value: -57

Compound: COc1ccc(Cn2c(CCc3ccccc3)nnc2[C@@H](Cc2c[nH]c3ccccc23)NC(=O)CN)cc1 [Compound 50]
Measurement Units: %
Endpoint Value: -44

Compound: COc1ccc(Cn2c(CCc3ccccc3)nnc2[C@@H](Cc2c[nH]c3ccccc23)NC(=O)[C@H]2CCCCN2)cc1 [Compound 49]
Measurement Units: %
Endpoint Value: -48

Compound: COc1ccc(Cn2c(CCc3c[nH]c4ccccc34)nnc2[C@@H](Cc2c[nH]c3ccccc23)NC(=O)[C@@H]2C=CCN2)cc1 [Compound 190]
Measurement Units: %
Endpoint Value: -30

Compound: Cc1ccc(Cn2c(CCc3ccccc3)nnc2[C@@H](Cc2c[nH]c3ccccc23)NC(=O)C(C)(C)N)cc1 [Compound 37]
Measurement Units: %
Endpoint Value: -49

Count: 4. Required value per item: change in vivo at 2 µmol/mouse.
1. CC(C)(N)C(=O)N[C@H](Cc1c[nH]c2ccccc12)c1nnc(CCCc2c[nH]c3ccccc23)n1Cc1cccc2ccccc12 [Compound 11]
2. COc1ccc(Cn2c(CCc3c[nH]c4ccccc34)nnc2[C@@H](Cc2c[nH]c3ccccc23)NC(=O)C2CCNCC2)cc1 [Compound 45]
3. COc1ccc(Cn2c(CCc3ccccc3)nnc2[C@@H](Cc2c[nH]c3ccccc23)NC(=O)C(C)(C)N)c(OC)c1 [Compound 179]
4. CC(C)(N)C(=O)N[C@H](Cc1c[nH]c2ccccc12)c1nnc(CCc2ccccc2)n1Cc1cccc2ccccc12 [Compound 27]

## Output
1: -65; 2: -28; 3: -39; 4: -58

----------
Tested on: male C57BL/6J mice
Protocol Summary: Fasting-induced feeding behavior (food intake) of mice
Assay type: in vivo
Conditions: 2 h; oral dose 2 μmol per mouse, 30 min before food; read-out: change of food intake - compounds versus vehicle treated negative control, at 2 h
Classification field: enter MET for change in vivo at 2 µmol/mouse values not below -30%, NOT MET for values below it.

These recorded examples may help you get a feel for the data.
Sample Smiles: COc1ccc(Cn2c(CCc3c[nH]c4ccccc34)nnc2[C@@H](Cc2c[nH]c3ccccc23)NC(=O)C2CCNCC2)cc1
Cat: NOT MET
--
Sample Smiles: COc1ccc(Cn2c(CCc3c[nH]c4ccccc34)nnc2[C@@H](Cc2c[nH]c3ccccc23)NC(=O)[C@@H]2C=CCN2)cc1
Cat: NOT MET
--
Sample Smiles: COc1ccc(Cn2c(CCc3ccccc3)nnc2[C@@H](Cc2c[nH]c3ccccc23)NC(=O)C(C)(C)N)c(OC)c1
Cat: NOT MET

Now examine the next entry.
## Input Quick check: does `CC(C)(N)C(=O)N[C@H](Cc1c[nH]c2ccccc12)c1nnc(CCc2c[nH]c3ccccc23)n1Cc1ccc(Cl)c(Cl)c1` have change in vivo at 2 µmol/mouse greater than or equal to -30%?
## Output MET

----------
Test system: male C57BL/6J mice
Protocol Summary: Fasting-induced feeding behavior (food intake) of mice
Type: in vivo
Conditions: 20 min; oral dose 2 μmol per mouse, 30 min before food; read-out: change of food intake - compounds versus vehicle treated negative control, at 20 min
Outcome Measure: change in vivo at 2 µmol/mouse
Put down the number, then write its unit next to it.

Sample Smiles: COc1ccc(Cn2c(CCc3ccccc3)nnc2[C@@H](Cc2c[nH]c3ccccc23)NC(=O)c2cnccn2)c(OC)c1
change in vivo at 2 µmol/mouse: -56%

Sample Smiles: COc1ccc(Cn2c(CCc3ccccc3)nnc2[C@@H](Cc2c[nH]c3ccccc23)NC(=O)[C@H]2CCCCN2)cc1
change in vivo at 2 µmol/mouse: -59%

Sample Smiles: COc1ccc(Cn2c(CCc3c[nH]c4ccccc34)nnc2[C@@H](Cc2c[nH]c3ccccc23)NC(=O)[C@@H]2C=CCN2)cc1
change in vivo at 2 µmol/mouse: -39%

// switching to the query molecule
## Input Suppose we examine the molecule `Cc1ccc(Cn2c(CCc3ccccc3)nnc2[C@@H](Cc2c[nH]c3ccccc23)NC(=O)C(C)(C)N)cc1` ; what change in vivo at 2 µmol/mouse value has been reported?
## Output -37%

----------
Test system: male C57BL/6J mice
Protocol Summary: Fasting-induced feeding behavior (food intake) of mice
Assay type: in vivo
Conditions: 2 h; oral dose 2 μmol per mouse, 30 min before food; read-out: change of food intake - compounds versus vehicle treated negative control, at 2 h
Give measured change in vivo at 2 µmol/mouse for each item. Keep answers brief.
Answers are plain numbers, in %.

Sample Smiles: Cc1ccc(Cn2c(CCc3ccccc3)nnc2[C@@H](Cc2c[nH]c3ccccc23)NC(=O)C(C)(C)N)cc1
Target: male C57BL/6J mice
Endpoint Value: -51

Sample Smiles: CC(C)(N)C(=O)N[C@H](Cc1c[nH]c2ccccc12)c1nnc(CCc2ccccc2)n1CCc1ccccc1
Target: male C57BL/6J mice
Endpoint Value: -11

Sample Smiles: CC(C)(N)C(=O)N[C@H](Cc1c[nH]c2ccccc12)c1nnc(CCCc2c[nH]c3ccccc23)n1Cc1cccc2ccccc12
Target: male C57BL/6J mice
Endpoint Value: -55

Sample Smiles: COc1ccc(Cn2c(CCc3ccccc3)nnc2[C@@H](Cc2c[nH]c3ccccc23)NC(=O)CN)cc1
Target: male C57BL/6J mice
Endpoint Value: -44

Sample Smiles: O=C(N[C@H](Cc1c[nH]c2ccccc12)c1nnc(CCc2ccccc2)n1-c1ccccc1)C1CCNCC1
Target: male C57BL/6J mice
Endpoint Value: -55

Count: 5. Required value per item: change in vivo at 2 µmol/mouse.
1. CC(C)(N)C(=O)N[C@H](Cc1c[nH]c2ccccc12)c1nnc(CCc2ccccc2)n1Cc1cccc2ccccc12
2. CC(C)(N)C(=O)N[C@H](Cc1c[nH]c2ccccc12)c1nnc(CCc2ccccc2)n1Cc1ccc(Cl)c(Cl)c1
3. COc1ccc(Cn2c(CCc3ccccc3)nnc2[C@@H](Cc2c[nH]c3ccccc23)NC(=O)[C@@H]2CCCCN2)cc1
4. CC(C)(N)C(=O)N[C@H](Cc1c[nH]c2ccccc12)c1nnc(CCc2c[nH]c3ccccc23)n1Cc1cccc2ccccc12
5. COc1ccc(Cn2c(CCc3ccccc3)nnc2[C@@H](Cc2c[nH]c3ccccc23)NC(=O)c2cnccn2)c(OC)c1

## Output
[-48, -28, -27, -53, -45]
